meta.source: paper PMC2605271

target: UniProt P31645; experiment: cell-based
Sequence (P31645 whole entry): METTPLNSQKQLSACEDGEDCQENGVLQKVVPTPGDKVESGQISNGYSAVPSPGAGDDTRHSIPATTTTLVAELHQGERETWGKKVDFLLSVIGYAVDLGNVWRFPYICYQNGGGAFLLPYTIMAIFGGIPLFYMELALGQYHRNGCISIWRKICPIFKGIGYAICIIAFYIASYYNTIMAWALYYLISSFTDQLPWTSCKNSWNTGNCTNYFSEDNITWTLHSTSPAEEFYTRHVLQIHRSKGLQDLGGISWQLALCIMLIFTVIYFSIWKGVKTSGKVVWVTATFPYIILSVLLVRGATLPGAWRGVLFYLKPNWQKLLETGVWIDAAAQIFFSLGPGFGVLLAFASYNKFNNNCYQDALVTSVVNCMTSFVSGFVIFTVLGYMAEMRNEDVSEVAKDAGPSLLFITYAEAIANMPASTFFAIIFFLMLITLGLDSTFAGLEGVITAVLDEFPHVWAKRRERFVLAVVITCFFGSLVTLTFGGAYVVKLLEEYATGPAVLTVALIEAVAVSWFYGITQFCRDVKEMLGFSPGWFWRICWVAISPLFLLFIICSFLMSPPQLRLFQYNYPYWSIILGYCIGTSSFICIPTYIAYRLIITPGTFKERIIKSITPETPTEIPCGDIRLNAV
pEC50: −log10 of the molar value.

{"compound": "CCCC(C)C1(CC)C(=O)NC(=S)NC1=O (stereo not shown)", "pEC50": "< 1.30"}
